The values you see were collected from patent US10405547B2.

- Tested on: pigweed (Amaranthus retroflexus)
- METHOD: Test A preemergence, pigweed
- Format: in vivo
- CONDITION SUMMARY: 125 g ai/ha, 0 to 100 scale (0 no effect, 100 complete control)
RESULT TYPE: Plant response rating, Pigweed
// return a plain number; no unit text

-- ask Which Plant response rating, Pigweed is reported for this compound? CON=Cc1cccc(C2CN(C)C(=O)C2C(=O)Nc2ccccc2F)c1 (stereo not shown)
-- reply 0

-- ask Which Plant response rating, Pigweed is reported for this compound? O=C1NCC(c2cccc(OCc3ccco3)c2)C1C(=O)Nc1ccccc1Cl (stereo not shown)
-- reply 0

-- ask Which Plant response rating, Pigweed is reported for this compound? O=C1NCC(c2cccc(OCC3CC3)c2)C1C(=O)Nc1ccccc1F (stereo not shown)
-- reply 0

-- ask Which Plant response rating, Pigweed is reported for this compound? O=C1NCC(c2cccc(Cn3cccn3)c2)C1C(=O)Nc1ccccc1F (stereo not shown)
-- reply 0

-- ask Which Plant response rating, Pigweed is reported for this compound? O=C1NCC(c2cccc(OCC3OCCO3)c2)C1C(=O)Nc1cccc(F)c1F (stereo not shown)
-- reply 60

-- ask Which Plant response rating, Pigweed is reported for this compound? CN1CC(c2cccc(Oc3ncc(F)cc3F)c2)C(C(=O)Nc2ccc(F)c(F)c2F)C1=O (single isomer, unassigned)
-- reply 80

-- ask Which Plant response rating, Pigweed is reported for this compound? O=C1NCC(c2cccc(OC(F)(F)C(F)OC(F)(F)F)c2)C1C(=O)Nc1ccccc1F (stereo not shown)
-- reply 0

-- ask Which Plant response rating, Pigweed is reported for this compound? CC1(COc2cccc(C3CNC(=O)C3C(=O)Nc3ccccc3Cl)c2)COC1 (stereo not shown)
-- reply 0

-- ask Which Plant response rating, Pigweed is reported for this compound? O=C1NCC(c2cccc(Cn3cncn3)c2)C1C(=O)Nc1ccccc1F (stereo not shown)
-- reply 0

-- ask Which Plant response rating, Pigweed is reported for this compound? `CN1C[C@H](c2cccc(Oc3ccc(F)cn3)c2)[C@@H](C(=O)Nc2ccc(F)c(F)c2F)C1=O`
-- reply 70

-- ask Which Plant response rating, Pigweed is reported for this compound? O=C1NCC(c2cccc(Cn3cccn3)c2)C1C(=O)Nc1cccc(F)c1F (stereo not shown)
-- reply 0

-- ask Which Plant response rating, Pigweed is reported for this compound? O=C1NCC(c2cccc(Oc3ccc(F)cn3)c2)C1C(=O)Nc1ccccc1F (single isomer, unassigned)
-- reply 0

-- ask Which Plant response rating, Pigweed is reported for this compound? O=C1NCC(c2cccc(Oc3ccccn3)c2)C1C(=O)Nc1ccccc1Cl (stereo not shown)
-- reply 0

-- ask Which Plant response rating, Pigweed is reported for this compound? CN(C)N=Cc1cccc(C2CN(C)C(=O)C2C(=O)Nc2ccccc2F)c1 (stereo not shown)
-- reply 0

-- ask Which Plant response rating, Pigweed is reported for this compound? O=C1NCC(c2cccc(OCc3ccccc3)c2)C1C(=O)Nc1ccc(F)cc1F (stereo not shown)
-- reply 0

-- ask Which Plant response rating, Pigweed is reported for this compound? O=C1NCC(c2cccc(OCC3CC3)c2)C1C(=O)Nc1ccc(F)cc1F (stereo not shown)
-- reply 0

-- ask Which Plant response rating, Pigweed is reported for this compound? O=C1NCC(c2cccc(Oc3ncc(F)cn3)c2)C1C(=O)Nc1cccc(F)c1F (single isomer, unassigned)
-- reply 60

-- ask Which Plant response rating, Pigweed is reported for this compound? O=C1NCC(c2cccc(OCc3ccco3)c2)C1C(=O)Nc1ccccc1F (stereo not shown)
-- reply 0

-- ask Which Plant response rating, Pigweed is reported for this compound? O=C1NCC(c2cccc(COc3ccccc3)c2)C1C(=O)Nc1ccccc1Cl (stereo not shown)
-- reply 0

-- ask Which Plant response rating, Pigweed is reported for this compound? O=C1NCC(c2cccc(OCc3ccccc3)c2)C1C(=O)Nc1ccccc1F (stereo not shown)
-- reply 0

-- ask Which Plant response rating, Pigweed is reported for this compound? O=C1NCC(c2cccc(Cn3cccn3)c2)C1C(=O)Nc1ccccc1Cl (stereo not shown)
-- reply 0

-- ask Which Plant response rating, Pigweed is reported for this compound? O=C1NCC(c2cccc(Cn3cccn3)c2)C1C(=O)Nc1ccc(F)cc1F (stereo not shown)
-- reply 0

---

- System: foxtail, giant (Setaria faberii)
- METHOD: Test A preemergence, giant foxtail
- Format: in vivo
- CONDITION SUMMARY: 500 g ai/ha, 0 to 100 scale (0 no effect, 100 complete control)
RESULT TYPE: Plant response rating, Foxtail, Giant
// return a plain number; no unit text

-- ask Which Plant response rating, Foxtail, Giant is reported for this molecule? CN1CC(c2cccc(Oc3ncc(F)cn3)c2)C(C(=O)Nc2cccc(F)c2F)C1=O (single isomer, unassigned)
-- reply 100

-- ask Which Plant response rating, Foxtail, Giant is reported for this molecule? O=C1NCC(c2ccccc2Cn2ccc(C(F)(F)F)n2)C1C(=O)Nc1ccccc1F (stereo not shown)
-- reply 50

-- ask Which Plant response rating, Foxtail, Giant is reported for this molecule? O=C1NCC(c2cccc(OCC3CC3)c2)C1C(=O)Nc1ccccc1F (stereo not shown)
-- reply 90

-- ask Which Plant response rating, Foxtail, Giant is reported for this molecule? CN1CC(c2cccc(Oc3ccc(C(F)(F)F)cn3)c2)C(C(=O)Nc2ccccc2F)C1=O (single isomer, unassigned)
-- reply 90

-- ask Which Plant response rating, Foxtail, Giant is reported for this molecule? O=C1NCC(c2cccc(Oc3ncc(F)cn3)c2)C1C(=O)Nc1cccc(F)c1F (single isomer, unassigned)
-- reply 100

-- ask Which Plant response rating, Foxtail, Giant is reported for this molecule? O=C1NCC(c2cccc(COc3ccccc3)c2)C1C(=O)Nc1cccc(F)c1F (stereo not shown)
-- reply 60

-- ask Which Plant response rating, Foxtail, Giant is reported for this molecule? O=C1NCC(c2cccc(COc3ccccc3)c2)C1C(=O)Nc1ccc(F)cc1F (stereo not shown)
-- reply 80

---

- Test system: ragweed (common ragweed, Ambrosia elatior)
- METHOD: Test A preemergence, ragweed
- Assay type: in vivo
- CONDITION SUMMARY: 500 g ai/ha, 0 to 100 scale (0 no effect, 100 complete control)
- From the text: Test A Seeds of plant species selected from barnyardgrass (Echinochloa crus-galli), kochia (Kochia scoparia), ragweed (common ragweed, Ambrosia elatior), ryegrass, Italian (Lolium multiflorum), foxtail, giant (Setaria faberii), and pigweed (Amaranthus retroflexus), were planted into a blend of loam soil and sand and treated preemergence with a directed soil spray using test chemicals formulated in a non-phytotoxic solvent mixture which included a surfactant. […]
Please respond with reported Plant response rating, Ragweed for every item in the list.
// return a plain number; no unit text

-- ask Which Plant response rating, Ragweed is reported for this compound? CN1CC(c2cccc(OC(F)(F)C(F)OC(F)(F)F)c2)C(C(=O)Nc2ccccc2F)C1=O (centres unmarked) [Compound 41]
-- reply 70

-- ask Which Plant response rating, Ragweed is reported for this compound? O=C1NCC(c2cccc(OC(F)(F)C(F)OC(F)(F)F)c2)C1C(=O)Nc1ccccc1F (centres unmarked) [Compound 40]
-- reply 20

-- ask Which Plant response rating, Ragweed is reported for this compound? O=C1NCC(c2cccc(Oc3ccccn3)c2)C1C(=O)Nc1ccccc1Cl (centres unmarked) [Compound 69]
-- reply 0

-- ask Which Plant response rating, Ragweed is reported for this compound? O=C1NCC(c2cccc(COc3ccccc3)c2)C1C(=O)Nc1ccc(F)c(F)c1F (centres unmarked) [Compound 17]
-- reply 0

-- ask Which Plant response rating, Ragweed is reported for this compound? O=C1NCC(c2cccc(OCC3CC3)c2)C1C(=O)Nc1ccccc1Cl (centres unmarked) [Compound 4]
-- reply 0

-- ask Which Plant response rating, Ragweed is reported for this compound? O=C1NCC(c2cccc(Oc3ccccn3)c2)C1C(=O)Nc1ccccc1F (centres unmarked) [Compound 34]
-- reply 0

-- ask Which Plant response rating, Ragweed is reported for this compound? CC1(COc2cccc(C3CNC(=O)C3C(=O)Nc3cccc(F)c3F)c2)COC1 (centres unmarked) [Compound 13]
-- reply 0

-- ask Which Plant response rating, Ragweed is reported for this compound? O=C1NCC(c2cccc(Cn3ccc(C(F)(F)F)n3)c2)C1C(=O)Nc1ccccc1F (centres unmarked) [Compound 23]
-- reply 0

-- ask Which Plant response rating, Ragweed is reported for this compound? O=C1NCC(c2cccc(Oc3ncc(Cl)cn3)c2)C1C(=O)Nc1ccccc1F (centres unmarked) [Compound 55]
-- reply 0

-- ask Which Plant response rating, Ragweed is reported for this compound? O=C1NCC(c2cccc(Cn3ccc(C(F)(F)F)n3)c2)C1C(=O)Nc1cccc(F)c1F (centres unmarked) [Compound 25]
-- reply 0

-- ask Which Plant response rating, Ragweed is reported for this compound? O=C1NCC(c2cccc(Oc3ccc(F)cn3)c2)C1C(=O)Nc1ccccc1F (single isomer, unassigned) [Compound 49]
-- reply 40

---

- System: ryegrass, Italian (Lolium multiflorum)
- METHOD: Test A postemergence, Italian ryegrass
- Type: in vivo
- CONDITION SUMMARY: 500 g ai/ha, visual injury, 0 to 100 scale (0 no effect, 100 complete control), approximately 10 days
Please respond with reported Plant response rating, Ryegrass, Italian for every item in the list.

-- ask Which Plant response rating, Ryegrass, Italian is reported for this compound? O=C1NCC(c2cccc(Cn3cccn3)c2)C1C(=O)Nc1ccc(F)c(F)c1F (centres unmarked) [Compound 26]
-- reply 0

-- ask Which Plant response rating, Ryegrass, Italian is reported for this compound? O=C1NCC(c2cccc(OCc3ccco3)c2)C1C(=O)Nc1ccccc1Cl (centres unmarked) [Compound 1]
-- reply 0

-- ask Which Plant response rating, Ryegrass, Italian is reported for this compound? O=C1NCC(c2cccc(Cn3ccc(C(F)(F)F)n3)c2)C1C(=O)Nc1ccc(F)cc1F (centres unmarked) [Compound 24]
-- reply 0

-- ask Which Plant response rating, Ryegrass, Italian is reported for this compound? O=C1NCC(c2cccc(Oc3ccc(C(F)(F)F)cn3)c2)C1C(=O)Nc1cccc(F)c1F (single isomer, unassigned) [Compound 47]
-- reply 30

-- ask Which Plant response rating, Ryegrass, Italian is reported for this compound? O=C1NCC(c2cccc(OCC3OCCO3)c2)C1C(=O)Nc1ccccc1C(F)(F)F (centres unmarked) [Compound 5]
-- reply 20
